The entries below come with measured IC50 values attached.
- assay.system: CDK9/cyclin T1 (Homo sapiens (Human))
- Sequence (P50750 whole entry, species assumed): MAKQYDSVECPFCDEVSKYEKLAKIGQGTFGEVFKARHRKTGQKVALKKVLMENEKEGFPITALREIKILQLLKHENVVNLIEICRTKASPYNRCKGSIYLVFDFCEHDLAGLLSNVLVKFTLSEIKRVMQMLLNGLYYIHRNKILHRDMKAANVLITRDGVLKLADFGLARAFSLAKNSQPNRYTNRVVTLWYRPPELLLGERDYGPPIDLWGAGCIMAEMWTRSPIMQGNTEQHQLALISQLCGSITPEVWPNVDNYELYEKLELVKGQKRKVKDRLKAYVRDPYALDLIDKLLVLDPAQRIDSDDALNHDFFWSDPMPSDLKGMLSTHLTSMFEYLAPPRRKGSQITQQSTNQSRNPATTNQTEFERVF
- Sequence (O60563 whole entry partner, species assumed): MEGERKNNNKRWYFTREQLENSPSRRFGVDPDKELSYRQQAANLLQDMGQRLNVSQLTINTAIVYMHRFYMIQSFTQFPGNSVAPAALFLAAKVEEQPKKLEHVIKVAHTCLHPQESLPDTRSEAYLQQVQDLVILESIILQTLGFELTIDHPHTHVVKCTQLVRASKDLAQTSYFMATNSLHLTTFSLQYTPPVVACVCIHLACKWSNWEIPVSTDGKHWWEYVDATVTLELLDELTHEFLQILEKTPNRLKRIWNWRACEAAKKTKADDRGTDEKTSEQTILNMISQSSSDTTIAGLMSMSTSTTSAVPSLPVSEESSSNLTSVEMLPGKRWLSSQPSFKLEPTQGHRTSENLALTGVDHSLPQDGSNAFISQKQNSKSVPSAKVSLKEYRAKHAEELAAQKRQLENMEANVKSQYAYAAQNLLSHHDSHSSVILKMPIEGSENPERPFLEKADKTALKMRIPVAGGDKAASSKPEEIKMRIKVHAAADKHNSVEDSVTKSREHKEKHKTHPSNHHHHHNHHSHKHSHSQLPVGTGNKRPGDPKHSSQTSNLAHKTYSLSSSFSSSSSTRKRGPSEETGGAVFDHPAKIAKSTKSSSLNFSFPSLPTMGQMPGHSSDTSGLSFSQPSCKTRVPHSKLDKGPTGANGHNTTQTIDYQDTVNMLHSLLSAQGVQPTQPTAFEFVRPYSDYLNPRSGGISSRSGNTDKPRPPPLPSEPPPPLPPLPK
- assay.protocol: Kinase activity assay (Caliper Mobility Shift Assay), CDK9/cyclin T1
Remember to quote the unit after the number.

A selection of reference data follows.
>>> endpoint_value("CC(C)c1noc2ccc3cnc(N[C@H]4CC[C@H](NC5CCNCC5)CC4)nc3c12 [I.2]")
"16 nM"
>>> endpoint_value("CC(C)n1nnc2ccc3cnc(N[C@H]4CC[C@H](N5CCN(CC6CCCC6)CC5)CC4)nc3c21 [II.8]")
"11 nM"
>>> endpoint_value("CC(C)c1noc2ccc3cnc(N[C@H]4CC[C@H](NC5CCOCC5)CC4)nc3c12 [I.1]")
"25 nM"

# next compound below
Exercise: Which IC50 reading was recorded for the compound CC(C)n1nnc2ccc3cnc(N[C@H]4CC[C@H](NC5CCOCC5)CC4)nc3c21 [II.2] ?
Solution: 8 nM

----------
Listed compounds paired with reported log10 of IC50
- assay.system: CDK4/cyclin D3 (Homo sapiens (Human), UniProt P11802)
- Sequence (P11802 whole entry, species assumed): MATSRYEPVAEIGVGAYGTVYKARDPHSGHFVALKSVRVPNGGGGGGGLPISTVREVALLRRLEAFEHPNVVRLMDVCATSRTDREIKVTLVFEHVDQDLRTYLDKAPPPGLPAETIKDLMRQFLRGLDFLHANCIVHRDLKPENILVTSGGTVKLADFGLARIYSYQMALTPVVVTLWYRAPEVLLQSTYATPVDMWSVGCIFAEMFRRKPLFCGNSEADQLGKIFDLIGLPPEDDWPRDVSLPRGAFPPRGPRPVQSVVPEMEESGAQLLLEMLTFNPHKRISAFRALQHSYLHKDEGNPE
- Sequence (P30281 whole entry partner, species assumed): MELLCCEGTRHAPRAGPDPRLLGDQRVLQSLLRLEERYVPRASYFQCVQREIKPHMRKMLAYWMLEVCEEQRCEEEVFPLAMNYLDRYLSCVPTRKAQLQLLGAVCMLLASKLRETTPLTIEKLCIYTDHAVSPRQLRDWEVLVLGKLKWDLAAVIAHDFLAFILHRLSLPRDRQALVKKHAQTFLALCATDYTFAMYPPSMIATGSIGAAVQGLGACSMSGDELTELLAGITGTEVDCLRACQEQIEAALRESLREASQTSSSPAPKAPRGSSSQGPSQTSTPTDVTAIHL
- assay.protocol: Kinase activity assay (Caliper Mobility Shift Assay), CDK4/cyclin D3
- condition.set: 10 nM kinase, 250 uM ATP
Note the log scale: values are log10 of IC50 expressed in nM.

A selection of reference data follows.
>>> endpoint_value("CC(C)n1nnc2ccc3cnc(NC4CCN(C)CC4)nc3c21")
1.61
>>> endpoint_value("CC(C)n1nnc2ccc3cnc(NC4CCC(=O)NC4)nc3c21 (stereo not drawn)")
1.70

Exercise: Hello, I am looking for reported log10 of IC50 with CDK4/cyclin D3 (Homo sapiens (Human), UniProt P11802) for CC(C)n1nnc2c(F)cc3cnc(NC4CCN(S(C)(=O)=O)CC4)nc3c21 . Could you help?
Solution: 0.30

Exercise: Can you check C[C@@]1(O)CCC[C@H]1c1noc2ccc3cnc(NC4CCN(S(C)(=O)=O)CC4)nc3c12 next?
Solution: 0.48

Exercise: Param item: CC(C)n1nnc2ccc3cnc(NC4CCCNC4)nc3c21 (stereo not drawn)
Solution: 1.74

Exercise: Quick one: CC(C)n1nnc2ccc3cnc(NC4CCN(S(=O)(=O)CC5CC5)CC4)nc3c21
Solution: 0.90

Exercise: Field entry: [2H]c1cc2cnc(NC3CCN(S(C)(=O)=O)CC3)nc2c2c(C(C)C)noc12
Solution: 1.00

Exercise: Could you do the same for CNS(=O)(=O)N1CCC(Nc2ncc3ccc4nnn(C(C)C)c4c3n2)CC1 , please?
Solution: 0.60

Exercise: Likewise for CCS(=O)(=O)N1CCC(Nc2ncc3ccc4nnn(C(C)C)c4c3n2)CC1 ?
Solution: 0.48

Exercise: Try the compound Cc1cc2cnc(NC3CCN(S(C)(=O)=O)CC3)nc2c2c(C(C)C)noc12
Solution: 0.70

Exercise: Okay, and CC(C)n1nnc2ccc3cnc(N[C@H]4CC[C@H](N(C)C)CC4)nc3c21 ?
Solution: 1.00

Exercise: Same lookup for CC(C)n1nnc2c(C(F)F)cc3cnc(NC4CCN(S(=O)(=O)C5CC5)CC4)nc3c21 , please.
Solution: 0.00

----------
- assay.system: CDK6/Cyclin D3 (Homo sapiens (Human))
- assay.protocol: Kinase activity assay (Caliper Mobility Shift Assay), CDK6/Cyclin D3
# Lookup of reported IC50 keyed by entry
Form entry: value (nM) — number only.

Solved cases below.
>>> endpoint_value("[2H]c1cc2cnc(NC3CCN(S(C)(=O)=O)CC3)nc2c2c1nnn2C(C)C")
5
>>> endpoint_value("CC(C)c1noc2ccc3cnc(N[C@H]4CC[C@H](NC5CCOCC5)CC4)nc3c12")
36
>>> endpoint_value("CC(C)n1nnc2c(Br)cc3cnc(NC4CCN(S(C)(=O)=O)CC4)nc3c21")
16

Exercise: Which IC50 is listed for C[C@@]1(O)CCC[C@H]1c1noc2ccc3cnc(NC4CCN(S(C)(=O)=O)CC4)nc3c12 ?
Solution: 6

Exercise: Next: CC(C)n1nnc2c(C(F)F)cc3cnc(NC4CCN(S(=O)(=O)C(F)F)CC4)nc3c21
Solution: 6

----------
pIC50 by entry:
- assay.system: CDK2/Cyclin A2 (Homo sapiens (Human), UniProt P24941)
- assay.protocol: Kinase activity assay (Caliper Mobility Shift Assay), CDK2/Cyclin A2
In plain terms, pIC50 is the concentration in mol/L turned into minus its base-10 logarithm.

In the examples that follow, each entry is paired with its recorded pIC50.
>>> endpoint_value("CC(C)n1nnc2c1-c1nc(NC3CCN(S(=O)(=O)C(F)F)CC3)ncc1CC2")
9.30
>>> endpoint_value("CC(C)n1nnc2ccc3cnc(NC4CCC(NS(C)(=O)=O)CC4)nc3c21 (stereo not drawn)")
9.00
>>> endpoint_value("CC(C)n1nnc2ccc3cnc(N[C@H]4CC[C@H](N(C)C)CC4)nc3c21")
7.46

Exercise: Given the entry CC(C)n1nnc2ccc3cnc(NC4CCCNC4)nc3c21 (stereo not drawn) , report its measured pIC50.
Solution: 6.53

Exercise: Here is the next compound: CC(C)n1nnc2c1-c1nc(NC3CCN(S(=O)(=O)C4CC4)CC3)ncc1CC2
Solution: 9.52

----------
- assay.system: CDK4/cyclin D3 (Homo sapiens (Human), UniProt P11802)
- assay.protocol: Kinase activity assay (Caliper Mobility Shift Assay), CDK4/cyclin D3
- condition.set: 10 nM kinase, 250 uM ATP
Entries and their pIC50
Note on pIC50: it is the negative log10 of concentration, concentration in mol/L.

// known answers, use as guide
>>> endpoint_value("[2H]c1cc2cnc(NC3CCN(S(C)(=O)=O)CC3)nc2c2c1nnn2C(C)C [II.25]")
8.52
>>> endpoint_value("COCCN[C@H]1CC[C@H](Nc2ncc3ccc4nnn(C(C)C)c4c3n2)CC1 [II.4]")
7.80
>>> endpoint_value("CC(C)n1nnc2cc(F)c3cnc(NC4CCN(S(C)(=O)=O)CC4)nc3c21 [II.22]")
8.52

Shifting focus to the molecule that follows.
Exercise: I have this molecule here, CC(C)n1nnc2ccc3cnc(NC4CCN(S(=O)(=O)C(F)F)CC4)nc3c21 [II.19] , and I need its recorded pIC50.
Solution: 8.52

----------
- assay.system: CDK4/cyclin D3 (Homo sapiens (Human), UniProt P11802)
- assay.protocol: Kinase activity assay (Caliper Mobility Shift Assay), CDK4/cyclin D3
- condition.set: 10 nM kinase, 250 uM ATP
pIC50: −log10 of the molar value.
Everything with pIC50 lower than 8 is not met; everything else, including exactly 8, is met.

Reference set (5 entries):
>>> answer_label("CC(C)c1noc2c(CO)cc3cnc(NC4CCN(S(C)(=O)=O)CC4)nc3c12 [I.10]")
"not met"
>>> answer_label("CC(C)n1nnc2c1-c1nc(NC3CCN(S(=O)(=O)C(F)F)CC3)ncc1CC2 [II.39]")
"met"
>>> answer_label("CC(C)c1noc2ccc3cnc(N[C@H]4CC[C@H](NC5CCOCC5)CC4)nc3c12 [I.1]")
"not met"
>>> answer_label("CC(C)c1noc2c(F)cc3cnc(NC4CCN(S(C)(=O)=O)CC4)nc3c12 [I.6]")
"met"
>>> answer_label("CC(C)n1nnc2ccc3cnc(NC4CCCNC4=O)nc3c21 (stereo not shown) [II.36]")
"not met"

Exercise: Test whether the compound COCCS(=O)(=O)N1CCC(Nc2ncc3ccc4nnn(C(C)C)c4c3n2)CC1 [II.18] records pIC50 of 8 or higher.
Solution: met

----------
- assay.system: CDK6/Cyclin D3 (Homo sapiens (Human), UniProt Q00534)
- Sequence (Q00534 whole entry, species assumed): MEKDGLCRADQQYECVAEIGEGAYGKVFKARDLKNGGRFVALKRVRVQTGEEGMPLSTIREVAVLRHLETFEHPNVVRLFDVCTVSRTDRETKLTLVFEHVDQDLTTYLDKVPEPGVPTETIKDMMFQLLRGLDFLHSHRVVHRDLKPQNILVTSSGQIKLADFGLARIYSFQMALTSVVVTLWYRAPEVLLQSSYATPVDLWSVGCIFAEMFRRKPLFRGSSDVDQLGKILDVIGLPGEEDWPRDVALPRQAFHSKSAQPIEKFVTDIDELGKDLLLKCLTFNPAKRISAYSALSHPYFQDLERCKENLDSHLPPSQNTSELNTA
- Sequence (P30281 whole entry partner, species assumed): as the sequence (P30281 whole entry partner, species assumed) above
- assay.protocol: Kinase activity assay (Caliper Mobility Shift Assay), CDK6/Cyclin D3
pIC50: −log10 of the molar value.
Please note: Y applies when pIC50 is 8 or greater, and N applies otherwise.

Below are worked cases with known answers.
>>> answer_label("CCS(=O)(=O)N1CCC(Nc2ncc3ccc4nnn(C(C)C)c4c3n2)CC1")
"Y"
>>> answer_label("CC(C)n1nnc2ccc3cnc(NC4CCCNC4=O)nc3c21 (stereo not drawn)")
"N"
>>> answer_label("CC(C)n1nnc2ccc3cnc(NC4CCC(=O)NC4)nc3c21 (stereo not drawn)")
"N"
>>> answer_label("CC(C)n1nnc2ccc3cnc(N[C@H]4CC[C@H](Nc5ncccn5)CC4)nc3c21")
"N"
>>> answer_label("CC(C)c1noc2ccc3cnc(NC4CCN(S(C)(=O)=O)CC4)nc3c12")
"N"

Exercise: Say whether CC(C)c1noc2ccc3cnc(N[C@H]4CC[C@H](NC5CCNCC5)CC4)nc3c12 shows pIC50 of 8 or more.
Solution: N

Exercise: Would you mind doing CC(C)n1nnc2ccc3cnc(N[C@H]4CC[C@H](NC5CCOCC5)CC4)nc3c21 as well?
Solution: N

Exercise: Another molecule to look at: CC(C)n1nnc2c(C(F)F)cc3cnc(NC4CCN(S(=O)(=O)C5CC5)CC4)nc3c21
Solution: Y

----------
- assay.system: CDK6/Cyclin D3 (Homo sapiens (Human))
- assay.protocol: Kinase activity assay (Caliper Mobility Shift Assay), CDK6/Cyclin D3
- Description: The inhibitory effect of compounds against the kinase CDK4/cyclin D3 was detected by Caliper Mobility Shift Assay method. The final concentration of the compounds to be tested was set at 10 concentrations starting from 1 uM by 3-fold serial dilution. 5 μL of compounds at 5-fold final concentration and 10 μL of CDK4/cyclin D3 kinase solution at a final concentration of 10 nM was added to a 384-well reaction plate, respectively. […] Caliper EZ Reader was used to read the conversion rate. […]
The following compounds are shown together with reported IC50 values.
Use µM as the unit, but write only the number.

Examples from the recorded data:
>>> endpoint_value("CC(C)n1nnc2ccc3cnc(NC4CCN(S(=O)(=O)C(F)F)CC4)nc3c21 [II.19]")
0.004
>>> endpoint_value("CC(C)n1nnc2c(F)cc3cnc(NC4CCN(S(C)(=O)=O)CC4)nc3c21 [II.21]")
0.005
>>> endpoint_value("CCS(=O)(=O)N1CCC(Nc2ncc3cc(C(F)F)c4nnn(C(C)C)c4c3n2)CC1 [II.28]")
0.007
>>> endpoint_value("CC(C)c1noc2ccc3cnc(NC4CCNCC4)nc3c12 [I.4]")
0.068
>>> endpoint_value("CC(C)n1nnc2c1-c1nc(NC3CCN(S(=O)(=O)C4CC4)CC3)ncc1CC2 [II.38]")
0.007

Exercise: For the compound shown here, CC(C)c1noc2ccc3cnc(N[C@H]4CC[C@H](Nc5ncccn5)CC4)nc3c12 [I.3] , give the reported IC50.
Solution: 0.038

Exercise: Again, but for [2H]c1cc2cnc(NC3CCN(S(C)(=O)=O)CC3)nc2c2c(C(C)C)noc12 [I.11]
Solution: 0.024
